# Tested on: MDA-MB-231 breast
# experiment: NCI-60 one-dose screen, 48 h (100 = growth as untreated, 0 = no growth, -100 = all killed)
# assay conditions: 10 µM unless noted
Compounds without any hit were thinned out: in the full panel of roughly 83,000, 20% have a hit.
Please provide measured growth for the entries that follow.
Reply with just the number (in %).

What value of growth has been recorded for this entry: `CC[C@H](C)[C@@H]1OC(=O)C(C)(C)[C@H](O)[C@H](Cc2ccccc2)OC(=O)[C@H](C(C)C)OC(=O)[C@@H](NC(=O)c2cccc(NC=O)c2O)[C@@H](C)OC1=O`
59.1

Now try `CCC(C)(C)[C@H](NC(=O)[C@H]1CCCCN1C)C(=O)N(C)[C@H](C[C@@H](OC(C)=O)c1nc(C(=O)N[C@@H](Cc2ccccc2)C[C@H](C)C(=O)O)cs1)C(C)C` .
15.7

Now try OCCNC(Cc1ccccc1)c1ccc2c(c1)OCO2 (centres undefined) .
98.7

Now try `C[Se]C(=O)c1ccccc1OC(C)=O` .
68.3
